# assayMethodText: in vitro
# particulars: human, HOS-CD4-CCR5 cells
# Description: Therapeutic index, ratio of CC50 for human HOS-CD4-CCR5 cells to EC50 for antiviral activity against HIV-1 Ba-L
metricName: selectivity ratio

Task: // query selectivity ratio value for entry Cc1nc2c(n1[C@@H]1C[C@H]3CC[C@@H](C1)N3CC[C@H](NC(=O)C1CCC(F)(F)CC1)c1ccsc1)CCN(C(=O)C(C)C)C2
Output: > 12800

Task: Let us now turn to CC(=O)N1CCc2c(nc(C)n2[C@@H]2C[C@H]3CC[C@@H](C2)N3CC[C@H](NC(=O)C2CCC(F)(F)CC2)c2ccsc2)C1
Output: > 30300

###

Provide the recorded selectivity ratio for the entries that follow.
# assayMethodText: in vitro
# particulars: human, PM1 cells
# Description: Therapeutic index, ratio of CC50 for human PM1 cells to EC50 for antiviral activity against HIV-1 Ba-L

Task: Consider the compound shown here: CC(=O)N1CCc2c(nc(C)n2[C@@H]2C[C@H]3CC[C@@H](C2)N3CC[C@H](NC(=O)C2CCC(F)(F)CC2)c2ccsc2)C1 What is its recorded selectivity ratio?
Output: > 69000

Task: Please answer likewise for Cc1nc2c(n1[C@@H]1C[C@H]3CC[C@@H](C1)N3CC[C@H](NC(=O)C1CCC(F)(F)CC1)c1ccsc1)CCN(C(=O)C(C)C)C2
Output: > 40000

###

# assayMethodText: in vitro
# particulars: human, TZM-bl cells
# Description: Therapeutic index, ratio of CC50 for human TZM-bl cells to EC50 for antiviral activity against HIV-1 Ba-L
metricName: selectivity ratio

Task: Give the measured selectivity ratio of CNS(=O)(=O)c1cccc(C(=O)N[C@@H](CCN2[C@@H]3CC[C@H]2C[C@H](n2c(C)nnc2C(C)C)C3)c2cccs2)c1 .
Output: > 43.2

Task: Now consider Cc1nc2c(n1[C@@H]1C[C@H]3CC[C@@H](C1)N3CC[C@H](NC(=O)C1CCC(F)(F)CC1)c1ccsc1)CCN(C(=O)C(C)C)C2 and answer again.
Output: > 18200

Task: What would you report for CC(=O)Nc1cccc(C(=O)N[C@@H](CCN2[C@@H]3CC[C@H]2C[C@H](n2c(C)nnc2C(C)C)C3)c2cccs2)c1 ?
Output: > 59

Task: Queued: Cc1nnc(C(C)C)n1[C@@H]1C[C@H]2CC[C@@H](C1)N2CC[C@H](NC(=O)C1CCCC1)c1ccsc1Cl
Output: > 219

Task: Again, but for Cc1ccc([C@H](CCN2[C@@H]3CC[C@H]2C[C@H](n2c(C)nnc2C(C)C)C3)NC(=O)C2CCN(S(C)(=O)=O)CC2)s1
Output: > 44

Task: Continue with COCc1nnc(C(C)C)n1[C@@H]1C[C@H]2CC[C@@H](C1)N2CC[C@H](NC(=O)C1CCC(F)(F)CC1)c1ccsc1
Output: 2430

Task: Try this compound too: Cc1csc([C@H](CCN2[C@@H]3CC[C@H]2C[C@H](n2c(C)nnc2C(C)C)C3)NC(=O)C2CCN(S(C)(=O)=O)CC2)c1
Output: > 10500

###

# assayMethodText: in vitro
# particulars: human, TZM-bl cells
metricName: selectivity ratio

Task: Which value of selectivity ratio has been reported for CC(=O)N[C@@H](CCN1[C@@H]2CC[C@H]1C[C@H](n1c(C)nnc1C(C)C)C2)c1cccs1 in the records?
Output: 36.8

Task: Let us now turn to Cc1ccsc1[C@H](CCN1[C@@H]2CC[C@H]1C[C@H](n1c(C)nnc1C(C)C)C2)NC(=O)C1CCCC1
Output: > 6900

Task: Same lookup for Cc1nnc(C(C)C)n1[C@@H]1C[C@H]2CC[C@@H](C1)N2CC[C@H](NC(=O)C1CCC(F)(F)CC1)c1ccsc1Cl , please.
Output: > 370

Task: Another compound to look at: COC(=O)C1CCC(C(=O)N[C@@H](CCN2[C@@H]3CC[C@H]2C[C@H](n2c(C)nnc2C(C)C)C3)c2cccs2)CC1 (some centres not stated)
Output: > 22200

Task: Entry to check: Cc1nnc(C(C)C)n1[C@@H]1C[C@H]2CC[C@@H](C1)N2CC[C@H](NC(=O)C1CCCCC1)c1ccc(F)s1
Output: > 75.2

Task: Similarly, CC(=O)N1CCc2c(nc(C)n2[C@@H]2C[C@H]3CC[C@@H](C2)N3CC[C@H](NC(=O)C2CCC(F)(F)CC2)c2ccsc2)C1 ?
Output: > 20000

Task: Check Cc1nnc(C(C)C)n1[C@@H]1C[C@H]2CC[C@@H](C1)N2CC[C@H](NC(=O)C1CCC(F)(F)CC1)c1cscn1 too.
Output: 2560

###

# assayMethodText: MRT in Sprague-Dawley rat at 10 mg/kg, po measured upto 24 hrs
# Type: ADME, organism-based
# particulars: in vivo
So I've got a bunch of compounds here, and I need their MRT values.
Only the number, expressed in h, is required.

Task: Suppose we examine the compound Cc1nc2c(n1[C@@H]1C[C@H]3CC[C@@H](C1)N3CC[C@H](NC(=O)C1CCC(F)(F)CC1)c1ccsc1)CCN(C(=O)C(C)C)C2 ; what MRT value has been reported?
Output: 13.2

Task: Next up: CC(=O)N1CCc2c(nc(C)n2[C@@H]2C[C@H]3CC[C@@H](C2)N3CC[C@H](NC(=O)C2CCC(F)(F)CC2)c2ccsc2)C1
Output: 9.16

###

# assayMethodText: AUC (0 to last) in Sprague-Dawley rat at 2 mg/kg, iv measured upto 24 hrs
# Assay type: ADME, organism-based
# Set-up: dose 2 mg/kg, time < 24 hrs, route iv
# particulars: Sprague-Dawley, in vivo
metricName: AUC(0-t) at 24 h (ng·h/mL)
A number alone suffices; assume ng·h/mL.

Task: What measured AUC(0-t) at 24 h goes with Cc1nc2c(n1[C@@H]1C[C@H]3CC[C@@H](C1)N3CC[C@H](NC(=O)C1CCC(F)(F)CC1)c1ccsc1)CCN(C(=O)C(C)C)C2 ?
Output: 298

###

Would you mind telling me the reported selectivity ratio of each entry?
# assayMethodText: in vitro
# particulars: human, PBMC
# Description: Therapeutic index, ratio of CC50 for human PBMC to EC50 for antiviral activity against HIV-1 KM018 clinical isolate
// no unit string in output, number only

Task: # selectivity ratio lookup, item Cc1nc2c(n1[C@@H]1C[C@H]3CC[C@@H](C1)N3CC[C@H](NC(=O)C1CCC(F)(F)CC1)c1ccsc1)CCN(C(=O)C(C)C)C2
Output: 2550

Task: Then CC(=O)N1CCc2c(nc(C)n2[C@@H]2C[C@H]3CC[C@@H](C2)N3CC[C@H](NC(=O)C2CCC(F)(F)CC2)c2ccsc2)C1 ?
Output: 4400

###

# assayMethodText: AUC (0 to infinitive) in Sprague-Dawley rat at 10 mg/kg, po measured upto 24 hrs
# Format: ADME, organism-based
# Set-up: dose 10 mg/kg, time < 24 hrs, route po
# particulars: Sprague-Dawley, in vivo
metricName: AUC(0-inf) (ng·h/mL)
Could you give me the number in ng·h/mL? Just the number is fine.

Task: I would be grateful if you could share the reported AUC(0-inf) for Cc1nnc(C(C)C)n1[C@@H]1C[C@H]2CC[C@@H](C1)N2CC[C@H](NC(=O)C1CCC(F)(F)CC1)c1ccccc1 .
Output: 12.4

Task: Request: Cc1nc2c(n1[C@@H]1C[C@H]3CC[C@@H](C1)N3CC[C@H](NC(=O)C1CCC(F)(F)CC1)c1ccsc1)CCN(C(=O)C(C)C)C2
Output: 283

###

I'd appreciate it if you could supply IC50 values for the items below.
# targetSystem: Cytochrome P450 3A4 (Homo sapiens, UniProt P08684)
# Sequence (P08684 whole entry): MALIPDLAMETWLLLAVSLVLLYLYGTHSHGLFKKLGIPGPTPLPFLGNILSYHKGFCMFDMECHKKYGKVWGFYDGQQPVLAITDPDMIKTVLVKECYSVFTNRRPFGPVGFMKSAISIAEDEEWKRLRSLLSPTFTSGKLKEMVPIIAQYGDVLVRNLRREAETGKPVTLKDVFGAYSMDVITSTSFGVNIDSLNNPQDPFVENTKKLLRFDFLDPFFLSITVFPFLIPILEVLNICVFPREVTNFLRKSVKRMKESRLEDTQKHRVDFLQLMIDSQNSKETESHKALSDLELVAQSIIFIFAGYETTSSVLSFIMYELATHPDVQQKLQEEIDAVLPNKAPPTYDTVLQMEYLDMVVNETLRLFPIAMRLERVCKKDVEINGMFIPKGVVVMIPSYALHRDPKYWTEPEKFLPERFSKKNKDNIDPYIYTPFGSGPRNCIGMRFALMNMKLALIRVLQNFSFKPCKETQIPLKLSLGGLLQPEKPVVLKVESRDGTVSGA
# assayMethodText: Inhibition of CYP3A4 (unknown origin) using testosterone as substrate
# Type: ADME

Task: Recorded IC50 for Cc1nc2c(n1[C@@H]1C[C@H]3CC[C@@H](C1)N3CC[C@H](NC(=O)C1CCC(F)(F)CC1)c1ccsc1)CCN(C(=O)C(C)C)C2 , please?
Output: > 25 µM

Task: Also, CC(=O)N1CCc2c(nc(C)n2[C@@H]2C[C@H]3CC[C@@H](C2)N3CC[C@H](NC(=O)C2CCC(F)(F)CC2)c2ccsc2)C1 please.
Output: > 25 µM

###

As a worked illustration, we turn to IC50 data collected for UniProt P10635.
Sequence (P10635 whole entry): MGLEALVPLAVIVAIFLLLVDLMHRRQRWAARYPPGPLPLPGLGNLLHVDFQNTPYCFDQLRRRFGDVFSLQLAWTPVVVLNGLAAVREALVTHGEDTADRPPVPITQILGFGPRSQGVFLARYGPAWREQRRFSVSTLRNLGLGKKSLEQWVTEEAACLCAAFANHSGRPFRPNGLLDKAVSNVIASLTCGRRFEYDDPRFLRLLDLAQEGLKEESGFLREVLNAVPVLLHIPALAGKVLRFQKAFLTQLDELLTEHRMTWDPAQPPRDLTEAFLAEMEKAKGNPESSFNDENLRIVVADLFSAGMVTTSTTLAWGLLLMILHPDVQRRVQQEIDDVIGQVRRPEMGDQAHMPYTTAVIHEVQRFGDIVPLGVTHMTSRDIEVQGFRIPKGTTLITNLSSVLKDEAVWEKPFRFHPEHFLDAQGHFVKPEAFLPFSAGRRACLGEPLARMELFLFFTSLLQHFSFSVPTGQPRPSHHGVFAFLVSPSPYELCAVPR

Task: Quick one: IC50 for Cc1nc2c(n1[C@@H]1C[C@H]3CC[C@@H](C1)N3CC[C@H](NC(=O)C1CCC(F)(F)CC1)c1ccsc1)CCN(C(=O)C(C)C)C2 ?
Output: > 25 µM

Task: # iterate: Cc1nnc(C(C)C)n1[C@@H]1C[C@H]2CC[C@@H](C1)N2CC[C@H](NC(=O)C1CCC(F)(F)CC1)c1ccccc1
Output: > 25 µM

Task: Please do the same for CC(=O)N1CCc2c(nc(C)n2[C@@H]2C[C@H]3CC[C@@H](C2)N3CC[C@H](NC(=O)C2CCC(F)(F)CC2)c2ccsc2)C1 as well.
Output: > 25 µM

// provenance: ChEMBL document CHEMBL5150068
